Recorded measurements of IC50, one per entry
target: UniProt P29274; test: Luciferase reporter assay (HEK293-A2AR-luc2p/CRE/Hygro cells); assay type: cell-based; settings: 3 nM CGS21680, 5 h incubation
Sequence (P29274 whole entry): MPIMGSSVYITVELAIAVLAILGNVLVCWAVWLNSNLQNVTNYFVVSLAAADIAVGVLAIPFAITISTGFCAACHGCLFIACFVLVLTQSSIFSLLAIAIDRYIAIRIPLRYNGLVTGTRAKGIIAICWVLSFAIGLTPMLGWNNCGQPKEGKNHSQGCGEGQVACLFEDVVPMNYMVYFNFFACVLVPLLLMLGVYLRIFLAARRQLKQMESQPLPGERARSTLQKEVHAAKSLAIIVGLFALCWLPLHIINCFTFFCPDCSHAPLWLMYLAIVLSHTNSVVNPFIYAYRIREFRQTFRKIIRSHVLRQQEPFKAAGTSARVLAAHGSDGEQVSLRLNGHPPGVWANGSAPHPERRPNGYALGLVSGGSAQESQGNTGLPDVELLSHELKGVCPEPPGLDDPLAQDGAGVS

Worked set:
Hello, please tell me recorded IC50 for this one: Nc1nc2c(cnn2C(C(=O)NCc2ccccc2F)c2ccccc2)c2nc(-c3ccco3)nn12 (stereo not shown) 1.5 nM

Give the reported value of IC50 for this record: C[C@@](C(=O)N[C@@H]1CCC[C@@H]1O)(c1ccccc1)n1ncc2c1nc(N)n1nc(-c3ccco3)nc21 [Example 48A] 12.6 nM

Identify IC50 associated with the compound Nc1nc2c(cnn2C(C(=O)NC2CCc3ccccc32)c2ccccc2)c2nc(-c3ccco3)nn12 (stereo not shown) 6.1 nM

Output measured IC50 for this item: CN1CCN(CCNC(=O)[C@@](C)(c2ccccc2)n2ncc3c2nc(N)n2nc(-c4ccco4)nc32)CC1 [Example 147B] 18.9 nM

Please report the measured IC50 for C[C@](C(=O)NCC1(O)COC1)(c1ccccc1)n1ncc2c1nc(N)n1nc(-c3ccco3)nc21 [Example 31B] 2.3 nM

Give recorded IC50. CC(=O)O[C@H]1CC[C@@H](NC(=O)[C@@](C)(c2ccccc2)n2ncc3c2nc(N)n2nc(-c4ccco4)nc32)CC1 [Example 151B] 2 nM

---
State, in one line, measured IC50 of CC(C(=O)N[C@H]1CC[C@](C)(O)CC1)(c1ccccc1)n1ncc2c1nc(N)n1nc(-c3ccco3)nc21 (stereo partly shown) 10.5 nM
